EXPERIMENTAL SYSTEM: HIV-1 RT-associated RNase H (Human immunodeficiency virus type 1 group M subtype B)
METHOD NOTES: biochemical
Type: biochemical
APPLIED CONDITIONS: wt RT; average and standard deviation of three independent experiments in duplicate; read-out: HIV-1 RNaseH IC50
METRIC: IC50 (µM)

>  <COMPOUND>
CCOC(=O)C(=O)CC(=O)C=Cc1cccn1Cc1ccc(F)cc1 [RDS1643, reference compound]

>  <REPORTED RESULT>
9

$$$$

---

The following compounds are shown together with reported IC50 values.
EXPERIMENTAL SYSTEM: HIV-1 RT-associated RNase H (Human immunodeficiency virus type 1 group M subtype B, UniProt P03366)
METHOD NOTES: biochemical
Type: biochemical
METRIC: IC50 (µM)

>  <COMPOUND>
Cc1cc(C)n2nc(NC(=O)c3ccccc3F)nc2n1 [Compound 14c]

>  <MEASURE UNIT>
µM

>  <SIGN>
>

>  <REPORTED RESULT>
100

$$$$
>  <COMPOUND>
Cc1cc(-c2ccccc2)n2nc(NC(=O)c3ccc(N)cc3)nc2n1 [Compound 12e]

>  <MEASURE UNIT>
µM

>  <SIGN>
>

>  <REPORTED RESULT>
100

$$$$
>  <COMPOUND>
Cc1cc(-c2ccccc2)nc2nc(NC(=O)c3ccc(O)c(O)c3)nn12 [Compound 13g]

>  <MEASURE UNIT>
µM

>  <SIGN>
=

>  <REPORTED RESULT>
3.5

$$$$
>  <COMPOUND>
Cc1cc(C)n2nc(NC(=O)c3ccc(N)cc3)nc2n1 [Compound 14e]

>  <MEASURE UNIT>
µM

>  <SIGN>
>

>  <REPORTED RESULT>
100

$$$$
>  <COMPOUND>
Cc1cc(-c2ccccc2)n2nc(C(=O)Nc3ccc(O)c(O)c3)nc2n1 [Compound 18g]

>  <MEASURE UNIT>
µM

>  <SIGN>
=

>  <REPORTED RESULT>
0.41

$$$$
>  <COMPOUND>
Cc1cc(-c2ccccc2)n2nc(NC(=O)c3ccc(O)c(O)c3)nc2n1 [Compound 12g]

>  <MEASURE UNIT>
µM

>  <SIGN>
=

>  <REPORTED RESULT>
0.8

$$$$
>  <COMPOUND>
Cc1cc(-c2ccccc2)n2nc(NC(=O)c3ccccc3F)nc2n1 [Compound 12c]

>  <MEASURE UNIT>
µM

>  <SIGN>
>

>  <REPORTED RESULT>
100

$$$$

---

The following molecules are shown together with reported melting point values.

>  <MOLECULE>
CCCCc1ccc(C(=O)Nc2nc3nc(C)cc(-c4ccccc4)n3n2)cc1 [Compound 12b]

>  <melting point>
157 to 158 °C

$$$$
>  <MOLECULE>
Cc1cc(-c2ccccc2)n2nc(NC(=O)c3ccc(N)cc3)nc2n1 [Compound 12e]

>  <melting point>
179 to 202 °C

$$$$
>  <MOLECULE>
Cc1cc(-c2ccccc2)nc2nc(NC(=O)c3ccc([N+](=O)[O-])cc3)nn12 [Compound 13d]

>  <melting point>
316 to 318 °C

$$$$

---

The following molecules are shown together with reported melting point values.

>  <MOLECULE>
Cc1cc(C)n2nc(NC(=O)c3ccc(N)cc3)nc2n1 [Compound 14e]

>  <melting point>
248 to 258 °C

$$$$
>  <MOLECULE>
Cc1cc(-c2ccccc2)n2nc(NC(=O)c3ccccc3F)nc2n1 [Compound 12c]

>  <melting point>
292 to 302 °C

$$$$
>  <MOLECULE>
COc1ccc(C(=O)Nc2nc3nc(-c4ccccc4)cc(C)n3n2)cc1OC [Compound 13f]

>  <melting point>
175 to 179 °C

$$$$
>  <MOLECULE>
Cc1cc(-c2ccccc2)n2nc(NC(=O)c3ccc(O)c(O)c3)nc2n1 [Compound 12g]

>  <melting point>
285 to 288 °C

$$$$
>  <MOLECULE>
Cc1cc(-c2ccc(O)c(O)c2)n2nc(NC(=O)c3ccccc3)nc2n1 [Compound 17h]

>  <melting point>
260 to 263 °C

$$$$
>  <MOLECULE>
Cc1cc(-c2ccccc2)nc2nc(NC(=O)c3ccc(O)c(O)c3)nn12 [Compound 13g]

>  <melting point>
298 to 312 °C

$$$$
>  <MOLECULE>
Cc1cc(-c2ccccc2)nc2nc(NC(=O)c3ccccc3F)nn12 [Compound 13c]

>  <melting point>
165 to 169 °C

$$$$
>  <MOLECULE>
CCCCc1ccc(C(=O)Nc2nc3nc(C)cc(C)n3n2)cc1 [Compound 14b]

>  <melting point>
175 to 177 °C

$$$$
>  <MOLECULE>
Cc1cc(C)n2nc(NC(=O)c3ccc(O)c(O)c3)nc2n1 [Compound 14g]

>  <melting point>
299 to 301 °C

$$$$
